Origin of the recorded values: the supplement of paper PMC9170038

System: MS2 coat protein
PROTOCOL_NOTES: apparent KD of MS2 coat protein; designed switch direction (-1 OFF switch, 1 ON switch): -1; higher = weaker reporter binding
MEASUREMENT_CONTEXT: Eterna round: R95; input ligand: microRNA oligo, concentration not stated
Decide using apparent KD of MS2 coat protein: a value greater than or equal to 0.03 µM is criterion met, a smaller one is criterion not met.

Known results for sequences:
SEQUENCE_ENTRY	CLASS_ASSIGNMENT
UAAUGCAAGUAAAGAUCCUACAUGAGGAUCACCCAUGUGCUCGUCUUAUAAAGUACUAUCACGAAAGUGAUAGUACA [Mat - Sensor v3 - turn-off var 1 - Eli Mod - D83] (puzzle: Sensor v3, turn-off variant 1)	criterion met
AAAACACAUGAGGAUCACCCAUGUGAGGAUAUGUUAAUUUUAAUGAAAAUUAAAAUUAACAGAAGGCACAGAAA [JR_Exclusion1_Sub024] (puzzle: Exclusion 1)	criterion met
UGCAUGUGAGGAUAUGUGUACUGUUUUUUGUUUAGAUGUACACAGAAGGCACAUGAGGAUCACCCAUGUAGUAC [Ex4 - 3 - 33] (puzzle: Exclusion 4)	criterion met
CAAUUCUGAGGAUAUCGAUUUUUGUACAUGAGGAUCACCCAUGUCCUUUUUAUUUAAUCCCGAGAAGGCAGUGUAU [JR_E5_Sub097] (puzzle: Exclusion 5)	criterion not met
ACUAGCUUUUUGCAUAGUAGGUUUGGUGCUUCGUAUGCUACAUGAGGAUCACCCAUGUAUUACUGAUUUCGUCGUUU [JR_SV3TOV2_Sub093] (puzzle: Sensor v3, turn-off variant 2)	criterion met

Given AGUAACAGAGGAUAUACUAUUUUAUGUAUUUAUUAUUUUGAACAUGAGGAUCACCCAUGUAGAAGGCUGAAUAA [JMF 89] (puzzle: Exclusion 2) , state whether its apparent KD of MS2 coat protein is at least 0.03 µM.
criterion not met

Say whether CUGAGGUAGCGGUCCUAUGACAUGAGGAUCACCCAUGUACCUUGCUUUGAGCAUUUUGCUCGUCUUAUGAUUCUCGG [Mat - Sensor v3 - turn-off var 1 - JL Mod - D39] (puzzle: Sensor v3, turn-off variant 1) shows apparent KD of MS2 coat protein of 0.03 µM or more.
criterion met

Decide: apparent KD of MS2 coat protein of UGUUGGCGAGGAUAUACAUGAGGAUCACCCAUGUGAGAGAAAAAAGUGAGGAAGAAAAGUAGAAGGCGCUGACC [salish99_ex3_r3_042] (puzzle: Exclusion 3) >= 0.03 µM?
criterion met

Entry CCAAGCUGUGUGAGGAUAUGCUGAACCUUGGUUCAGCAGAAGGCACAUGAGGAUCACCCAUGUGAAAAGCUUGG [Mat - Exclusion 4 - JL Mod - D95] (puzzle: Brourd's mod of Exclusion 4) : is its apparent KD of MS2 coat protein no less than 0.03 µM?
criterion not met

Textbook exercise: given the entry AAUGAUUCAGGAUAUACAUGAGGAUCACCCAUGUUGGUGUCCCUCCCAAAGUUGCAGUGUAGAAGGGAGUCCCG [Tigezaonbi] (puzzle: Exclusion 3) , state whether its apparent KD of MS2 coat protein is greater than or equal to 0.03 µM.
criterion met

Is reported apparent KD of MS2 coat protein greater than or equal to 0.03 µM here: AAGAAACAUGAGGAUCACCCAUGUGAGGAUAUGACAAAGAAAAGAAAAGAAAGAAGAGUCAGAAGGCACAAAGG [salish99-ex1_r3_038] (puzzle: Exclusion 1)
criterion met

Does AAAGAGCUAGGAUAUCGCGACCUUGACAUGAGGAUCACCCAUGUGCCCUCGUAACAACGACGAGAAGGAGCGAAAA [Gelaladied] (puzzle: Exclusion 5) have a reported apparent KD of MS2 coat protein of at least 0.03 µM?
criterion not met
